System: transient receptor potential cation channel C4 beta (TRPC4), mouse
Assay: TRPC4 cation channel opening, second retest – cell-based, second round, Fluo4, HEK293 TRPC4beta/mu-opioid, 1 µM, confirmation (AID 2461)
Details: Fluo4 calcium fluorescence, at 1 µM
Calls of active or inactive are those of the source.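 Rule for the calls: active = primary screen active and over 50% activation in each of two duplicate runs; inactive = the rest.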
Permitted responses: 1.0 (active), 0.0 (inactive)

compound | study system | class assignment
Cc1noc(C)c1COC(=O)[C@@H](NC(=O)c1ccccc1Cl)C(C)C | transient receptor potential cation channel C4 beta (TRPC4), mouse | 0.0
Cc1sc2ncnc(NCC(c3ccco3)N(C)C)c2c1C (stereo unspecified) | transient receptor potential cation channel C4 beta (TRPC4), mouse | 1.0
COc1ccc([N+](=O)[O-])cc1NCc1ccco1 | transient receptor potential cation channel C4 beta (TRPC4), mouse | 0.0

**Q:** Could you please tell me the result logged for `O=C(COC(=O)c1cccc([N+](=O)[O-])c1)c1ccc2c(c1)OCO2` in this assay?
**A:** 0.0

**Q:** Could you please tell me the result logged for `C/C(=N\NC(=O)COc1ccc(C)cc1C(C)C)c1ccc(-n2ccnc2)cc1` in this assay?
**A:** 0.0

**Q:** Could you please tell me the result logged for N#Cc1c(N2CCCCC2)nc(N)c2c(N)nc3c(c12)CC(c1ccccc1)O3 (stereo unspecified) in this assay?
**A:** 0.0

Taken from PubChem BioAssay.
